test settings: [M+Na]+; instrument: DT; stepped-field
Entries annotated with measured collision cross section (N2)
# value in Å²; strip the unit string

Input line: So what does the record say about collision cross section (N2) for CCOCN(C(=O)CCl)c1c(C)cccc1CC [Acetochlor] ?
Output line: 174.6

Input line: Now give it for CC(=O)N[C@H]1C(O)O[C@H](CO)[C@@H](O)[C@@H]1O (stereo partly drawn) [N-Acetyl-D-glucosamine] too.
Output line: 160.36

Input line: Check CC(=O)Nc1ccc(S(=O)(=O)Nc2cc(C)on2)cc1 [N-Acetyl Sulfamethoxazole] too.
Output line: 178.52

Input line: And OC[C@H]1O[C@H](O[C@H]2[C@H](O)[C@@H](O)[C@@H](O[C@H]3[C@H](O)[C@@H](O)[C@@H](O[C@H]4[C@H](O)[C@@H](O)[C@@H](O[C@H]5[C@H](O)[C@@H](O)[C@@H](O[C@H]6[C@H](O)[C@@H](O)C(O)O[C@@H]6CO)O[C@@H]5CO)O[C@@H]4CO)O[C@@H]3CO)O[C@@H]2CO)[C@H](O)[C@@H](O)[C@@H]1O (stereo not given in full) [Maltohexaose] ?
Output line: 279.7

Input line: Repeat for the following compound: CCC(CC)Nc1c([N+](=O)[O-])cc(C)c(C)c1[N+](=O)[O-] [Pendimethalin]
Output line: 187.77

====

test settings: [M+Na]+; instrument: DT; stepped-field
Here, each record is paired with measured collision cross section (N2) data.
Answer format: numeric, Å² implied, no suffix.

Solved entries:
[[record]]
molecule = "N[C@@H](CCCC(=O)O)C(=O)O"
observed_property = "collision cross section (N2)"
numeric_readout = 142.23

[[record]]
molecule = "O=C(O)CNCP(=O)(O)O [Glyphosate]"
observed_property = "collision cross section (N2)"
numeric_readout = 141.17

[[record]]
molecule = "CC(=O)NC1[C@H](OC2[C@@H](O)[C@H](OC([C@H](O)CO)[C@@H](O)[C@@H](O)C=O)O[C@H](COC3O[C@H](CO)[C@@H](O[C@@H]4O[C@H](CO)[C@H](O)[C@H](O)[C@H]4O)[C@H](O)[C@H]3NC(C)=O)[C@H]2O)O[C@H](CO)[C@@H](O)[C@@H]1OC1O[C@H](CO)[C@H](O)[C@H](O)[C@H]1O (stereo not given in full)"
observed_property = "collision cross section (N2)"
numeric_readout = 301.6

[[record]]
molecule = "NC(=O)C[C@H](N)C(=O)O"
observed_property = "collision cross section (N2)"
numeric_readout = 131.94


Input line: Recorded collision cross section (N2) for OC[C@H]1OC(O)[C@@H](O)[C@@H](O)[C@@H]1O (stereo not given in full) , please?
Output line: 141.82

Input line: // query: O=c1ccn([C@@H]2O[C@H](CO)[C@@H](O)[C@H]2O)c(=O)[nH]1
Output line: 166

Input line: Consider next the molecule O=C(O)CC(C(=O)O)C(O)C(=O)O (stereo not given) in the same way.
Output line: 146.78

Input line: What do we get for O=P(O)(O)OP(=O)(O)O ?
Output line: 145.58

====

test settings: [M+H]+; instrument: TW; calibrated with polyalanine and drug standards
observed property: collision cross section (N2) (Å²)
Could you give me the number in Å²? Just the number is fine.

Here's what some known entries look like.
[[record]]
compound = "N[C@@H](CSSC[C@H](N)C(=O)O)C(=O)O"
observed_property = "collision cross section (N2)"
numeric_readout = 148.1

[[record]]
compound = "CC(C)CC1C(=O)N2CCCC2C2(O)OC(NC(=O)C3C=C4c5cccc6[nH]cc(c56)CC4N(C)C3)(C(C)C)C(=O)N12 (stereo not given)"
observed_property = "collision cross section (N2)"
numeric_readout = 236.1

[[record]]
compound = "Oc1c(Br)cc(Br)c2cccnc12"
observed_property = "collision cross section (N2)"
numeric_readout = 137.7

[[record]]
compound = "COc1cc(OC)c(C(C)=O)c(O)c1C"
observed_property = "collision cross section (N2)"
numeric_readout = 140.2


Input line: What measured collision cross section (N2) goes with CCCCOc1cc(CC2CNC(=O)N2)ccc1OC (stereo not given) ?
Output line: 174

====

# key: entry, value: collision cross section (N2)
test settings: [M+H]+; instrument: TW; calibrated with phosphatidylcholines (ESI+) and phosphatidylethanolamines (ESI-)
// units = Å²; emit number, no label

The cases that follow already have their collision cross section (N2) on record.
[[record]]
compound = "CC/C=C\\C/C=C\\C/C=C\\C/C=C\\CCCCC(=O)OC[C@H](COP(=O)(O)OCCN)OC(=O)CCCCCCCCC/C=C\\C/C=C\\CCCCC"
observed_property = "collision cross section (N2)"
unit_tag = "Å²"
numeric_readout = 275.7

[[record]]
compound = "CCCCCCCCCCCCC=CC[C@@H](O)[C@H](CO)NC(=O)CCCCCCCCCCCCCCCCCCC"
observed_property = "collision cross section (N2)"
unit_tag = "Å²"
numeric_readout = 266.5


Input line: Report collision cross section (N2) for CCCCC/C=C\C/C=C\C/C=C\C/C=C\CCCC(=O)O[C@H](CO/C=C\CCCCCCCCCCCCCCCCCC)COP(=O)(O)OCCN please.
Output line: 286.9

====

test settings: [M+H]+; instrument: DT; stepped-field
Could you mark each record Condition met if its collision cross section (N2) falls strictly under 200 Å², and Condition not met if it equals or exceeds it?

[[record]]
compound = "CCCCCCCCCCCCCC(=O)OC[C@@H](O)COP(=O)([O-])OCC[N+](C)(C)C"
group = "Condition not met"

[[record]]
compound = "CCC(CC)Nc1c([N+](=O)[O-])cc(C)c(C)c1[N+](=O)[O-]"
group = "Condition met"

[[record]]
compound = "CN(C)c1nc(=O)n(C2CCCCC2)c(=O)n1C"
group = "Condition met"


Input line: Does the reported collision cross section (N2) of the following compound sit strictly below 200 Å²? Nc1ncnc2nc[nH]c12
Output line: Condition met

Input line: Likewise for O=c1nc[nH]c2nc[nH]c12 ?
Output line: Condition met

====

Below is a list of entries, each paired with its recorded collision cross section (N2) value.
test settings: [M+H]+; instrument: TW; calibrated with polyalanine and drug standards
# do not omit the unit; it follows the number

Reference set, count: 5
[[record]]
molecule = "CC(=O)Nc1ccc(S(=O)(=O)Nc2ccc([N+](=O)[O-])cc2)cc1"
observed_property = "collision cross section (N2)"
result = "173.2 Å²"

[[record]]
molecule = "CCCCC[C@H](CC(=O)NO)C(=O)N[C@H](C(=O)N1CCC[C@H]1CO)C(C)C"
observed_property = "collision cross section (N2)"
result = "194.1 Å²"

[[record]]
molecule = "Cc1ncc([N+](=O)[O-])n1CCO"
observed_property = "collision cross section (N2)"
result = "130.4 Å²"

[[record]]
molecule = "COc1ccc2c(c1OC)C(=O)O[C@@H]2[C@H]1c2cc3c(cc2CCN1C)OCO3 [HYDRASTINE (1R, 9S)]"
observed_property = "collision cross section (N2)"
result = "186.3 Å²"

[[record]]
molecule = "COc1ccc(-c2cc(=O)c3c(O)c(OC)c(OC)c(OC)c3o2)cc1OC"
observed_property = "collision cross section (N2)"
result = "186.6 Å²"


Input line: # get_value(readout='collision cross section (N2)', item= Nc1nc(=O)c2nc(CNc3ccc(C(=O)N[C@@H](CCC(=O)O)C(=O)O)cc3)cnc2[nH]1 )
Output line: 196.8 Å²

Input line: Try OCC(O)CN1CCN(c2ccccc2)CC1 (configuration not stated) next.
Output line: 155.7 Å²

Input line: Same question, Oc1cc(O)c2c(c1)O[C@H](c1ccc(O)c(O)c1)[C@H](O)C2 [EPICATECHIN] this time
Output line: 161.5 Å²

Input line: Now try CCCCCCCCCCC[C@@H](C[C@@H]1OC(=O)[C@H]1CCCCCC)OC(=O)[C@H](CC(C)C)NC=O .
Output line: 241.2 Å²

Input line: Repeat with Nc1ccncc1
Output line: 117.8 Å²

Input line: How about this molecule: C=C[C@H]1CN2CC[C@H]1C[C@@H]2[C@@H](OC(=O)OCC)c1ccnc2ccc(OC)cc12 [QUININE ETHYL CARBONATE]
Output line: 196.7 Å²

Input line: Also, C[C@]12C=CC(=O)C=C1CC[C@@H]1[C@@H]2[C@@H](O)C[C@@]2(C)[C@H]1CC[C@]2(O)C(=O)CO please.
Output line: 183.7 Å²

Input line: Also, O=C1C=C2CC3(O)COc4c(ccc(O)c4O)C3=C2C=C1O (configuration not stated) please.
Output line: 162.5 Å²

Input line: Next up: OCCc1ccccc1
Output line: 121.2 Å²

Input line: Ok, now CC[C@H]1CN2CCc3cc(OC)c(OC)cc3[C@@H]2C[C@@H]1C[C@H]1NCCc2cc(OC)c(OC)cc21
Output line: 219.6 Å²

Input line: Cool, now COc1ccc(-c2coc3c(OC)c(OC)cc(O)c3c2=O)cc1
Output line: 171.9 Å²

Input line: Now the same for CC(C)OC(=O)C(C)(C)Oc1ccc(C(=O)c2ccc(Cl)cc2)cc1 [FENOFIBRATE]
Output line: 190.5 Å²
